Data provenance: ChEMBL document CHEMBL1201862

# EXPERIMENTAL_TARGET: Protein RecA (Mycobacterium tuberculosis)
# EXPERIMENT_NOTES: Fluorescence Cell-Free Homogeneous Dose Retest to Identify Inhibitors of RecA-Intein Splicing Activity. [Related pubchem assays (depositor defined):AID2097, AID2223, AID489010, AID492950]
# Type: functional
Active and inactive are the calls of the source. No stated cut-off is given here; in the data, actives have a measured EC50 and inactives only a lower limit.
Possible outcomes: active, inactive

| MOLECULE | DISCRETE_LABEL |
| --- | --- |
| Cc1cc(C)n(-c2ccc(NN=C(C#N)C#N)cc2)n1 | active |
| CC[n+]1ccc2cc(OC)c(OC)cc2c1Cc1ccc(OC)c(OC)c1 | inactive |
| Cn1c(SCC(=O)NCC2CCCO2)ncc(C(=O)Nc2ccccc2)c1=O (stereo unspecified) | active |
| Cc1cccc(OCC(=O)Oc2ccc(Cl)cc2)c1 | active |
| CCOC(=O)CSc1n[nH]c(NC(=O)c2cccc(C(F)(F)F)c2)n1 | active |
| C/C(CC(=O)Nc1ccc(Cl)cn1)=N\NC(=O)Cc1cccs1 | active |
| COc1ccc(C(=O)n2nnc3ccccc32)cc1Br | active |
| COc1cc(C2C(C#N)=C(N)Oc3[nH]nc(-c4cccnc4)c32)cc(Br)c1O (stereo unspecified) | active |
| CC1=NN(C)C(=O)C1Cc1c(F)cccc1Cl (stereo unspecified) | active |

* * *

# Test system: Streptococcus
# EXPERIMENT_NOTES: Group A Streptococcus viability loss, dose response, counter-screen for streptokinase expression inhibitor project, luminescence, BacTiterGlo (AID 1915);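 further: potency for reduction of bacterial viability or growth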
# Format: functional, organism-based
Active and inactive are the calls of the source. No stated cut-off is given here; in the data, actives have a measured EC50 and inactives only a lower limit.
// EC50 lookup, one value per entry

| MOLECULE | EXPERIMENTAL_TARGET | EC50 |
| --- | --- | --- |
| COc1cccc(-c2nnc(NC(=O)c3ccc(S(=O)(=O)N4CC(C)OC(C)C4)cc3)o2)c1 (stereo not given) | Streptococcus | 2.15 µM (active) |
| COc1ccc(C2c3ccsc3CCN2C(=O)C(C)(C)C)cc1 (stereo not given) | Streptococcus | > 150 µM (not active) |
| COc1ccc(-c2oc3ncn(Cc4ccco4)c(=N)c3c2-c2ccc(OC)cc2)cc1 | Streptococcus | > 150 µM (not active) |
| CN(/N=C/c1ccc(Cl)cc1Cl)c1ncc(Cl)cc1C(F)(F)F | Streptococcus | > 150 µM (not active) |
| Cc1ccc(C)c(-c2csc(N)c2C(=O)OC(C)C)c1 | Streptococcus | > 150 µM (not active) |

* * *

# EXPERIMENTAL_TARGET: Streptokinase A (Streptococcus pyogenes serotype M1)
# Sequence (P10520 whole entry): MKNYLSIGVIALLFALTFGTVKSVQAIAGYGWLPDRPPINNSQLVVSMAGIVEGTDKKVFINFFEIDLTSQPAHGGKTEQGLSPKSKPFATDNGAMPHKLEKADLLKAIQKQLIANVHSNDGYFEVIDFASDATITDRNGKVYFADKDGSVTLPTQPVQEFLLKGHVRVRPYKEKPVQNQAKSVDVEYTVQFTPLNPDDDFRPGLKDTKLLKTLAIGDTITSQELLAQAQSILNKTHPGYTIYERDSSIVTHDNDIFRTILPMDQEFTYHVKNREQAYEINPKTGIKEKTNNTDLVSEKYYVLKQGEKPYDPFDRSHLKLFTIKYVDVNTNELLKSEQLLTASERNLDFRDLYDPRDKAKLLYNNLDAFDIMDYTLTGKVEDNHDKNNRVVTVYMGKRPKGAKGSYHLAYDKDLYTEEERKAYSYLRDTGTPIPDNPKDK
# EXPERIMENT_NOTES: S. pyogenes streptokinase expression inhibitors, potency, dose response, plasminogen activation absorbance, OD405 (AID 1914);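 further: secreted streptokinase activity via plasminogen activation per viability signal from cell pellet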
# Format: functional, Streptococcus pyogenes M1 GAS
Active and inactive are the calls of the source. Cut-off read from the data, not from the text of the source: actives have a measured EC50 and inactives only a lower limit.

| COMPOUND | EXPERIMENTAL_TARGET | EC50 |
| --- | --- | --- |
| CN(/N=C/c1ccc(Cl)cc1Cl)c1ncc(Cl)cc1C(F)(F)F | Streptokinase A (Streptococcus pyogenes serotype M1) | 21.2 µM (active) |
| CN(C)Cc1nc2ccccc2c(=O)n1Cc1nc(-c2cc3ccccc3o2)cs1 | Streptokinase A (Streptococcus pyogenes serotype M1) | 104 µM (active) |
| Cc1noc(C)c1CSc1nc2sc(C)c(C)c2c(=O)n1C1CCCC1 | Streptokinase A (Streptococcus pyogenes serotype M1) | 3.31 µM (active) |
| COc1ccc(CC(=O)N/N=C/c2cc([N+](=O)[O-])cc(Br)c2O)cc1 | Streptokinase A (Streptococcus pyogenes serotype M1) | > 150 µM (not active) |
| O=C(Nc1cccc(NC(=O)c2cccnc2)c1)c1ccccc1 | Streptokinase A (Streptococcus pyogenes serotype M1) | > 150 µM (not active) |
| CC(C)(C)c1ccc(C(=O)NCc2nnc(SCC(=O)NC3CCCC3)o2)cc1 | Streptokinase A (Streptococcus pyogenes serotype M1) | > 150 µM (inconclusive) |
| Cc1cc2occ(CC(=O)NC3=NCCS3)c2cc1C(C)C | Streptokinase A (Streptococcus pyogenes serotype M1) | > 150 µM (not active) |
| Cc1ccc(-c2csc3ncnc(NS(=O)(=O)c4ccc(Cl)cc4)c23)cc1 | Streptokinase A (Streptococcus pyogenes serotype M1) | 16.2 µM (active) |
| O=c1[nH]c2cc3c(cc2cc1CN(CCc1ccccc1)Cc1nnnn1CC1CCCO1)OCO3 (stereo not given) | Streptokinase A (Streptococcus pyogenes serotype M1) | > 150 µM (not active) |
| Cc1cc(NC(=O)/C=C/c2ccccc2Cl)n(-c2nc3ccccc3[nH]2)n1 | Streptokinase A (Streptococcus pyogenes serotype M1) | > 150 µM (not active) |
